# targetUnderTest: Integrin alpha-IIb/beta-3 (Homo sapiens, UniProt P08514+P05106)
# Sequence (P05106 27-788 limits assumed): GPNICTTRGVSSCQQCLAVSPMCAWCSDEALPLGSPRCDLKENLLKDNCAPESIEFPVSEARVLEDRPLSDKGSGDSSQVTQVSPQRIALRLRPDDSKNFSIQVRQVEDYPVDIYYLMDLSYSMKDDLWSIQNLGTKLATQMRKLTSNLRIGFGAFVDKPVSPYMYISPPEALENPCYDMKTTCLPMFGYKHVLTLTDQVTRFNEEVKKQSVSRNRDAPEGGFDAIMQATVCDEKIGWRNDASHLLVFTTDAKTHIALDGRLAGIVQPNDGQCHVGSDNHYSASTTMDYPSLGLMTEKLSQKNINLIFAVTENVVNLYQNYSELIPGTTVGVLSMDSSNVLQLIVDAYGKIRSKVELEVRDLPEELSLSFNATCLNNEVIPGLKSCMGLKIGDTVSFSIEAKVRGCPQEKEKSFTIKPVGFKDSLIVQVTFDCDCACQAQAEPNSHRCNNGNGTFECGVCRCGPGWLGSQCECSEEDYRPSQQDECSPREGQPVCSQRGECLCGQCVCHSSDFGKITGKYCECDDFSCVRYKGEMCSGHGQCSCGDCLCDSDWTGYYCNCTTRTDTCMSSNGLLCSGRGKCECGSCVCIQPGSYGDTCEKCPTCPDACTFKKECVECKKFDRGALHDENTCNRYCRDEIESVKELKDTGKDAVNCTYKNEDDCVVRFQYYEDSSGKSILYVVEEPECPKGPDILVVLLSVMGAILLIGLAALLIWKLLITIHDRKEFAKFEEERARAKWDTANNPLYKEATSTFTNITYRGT
# Sequence (P08514 32-887 limits assumed): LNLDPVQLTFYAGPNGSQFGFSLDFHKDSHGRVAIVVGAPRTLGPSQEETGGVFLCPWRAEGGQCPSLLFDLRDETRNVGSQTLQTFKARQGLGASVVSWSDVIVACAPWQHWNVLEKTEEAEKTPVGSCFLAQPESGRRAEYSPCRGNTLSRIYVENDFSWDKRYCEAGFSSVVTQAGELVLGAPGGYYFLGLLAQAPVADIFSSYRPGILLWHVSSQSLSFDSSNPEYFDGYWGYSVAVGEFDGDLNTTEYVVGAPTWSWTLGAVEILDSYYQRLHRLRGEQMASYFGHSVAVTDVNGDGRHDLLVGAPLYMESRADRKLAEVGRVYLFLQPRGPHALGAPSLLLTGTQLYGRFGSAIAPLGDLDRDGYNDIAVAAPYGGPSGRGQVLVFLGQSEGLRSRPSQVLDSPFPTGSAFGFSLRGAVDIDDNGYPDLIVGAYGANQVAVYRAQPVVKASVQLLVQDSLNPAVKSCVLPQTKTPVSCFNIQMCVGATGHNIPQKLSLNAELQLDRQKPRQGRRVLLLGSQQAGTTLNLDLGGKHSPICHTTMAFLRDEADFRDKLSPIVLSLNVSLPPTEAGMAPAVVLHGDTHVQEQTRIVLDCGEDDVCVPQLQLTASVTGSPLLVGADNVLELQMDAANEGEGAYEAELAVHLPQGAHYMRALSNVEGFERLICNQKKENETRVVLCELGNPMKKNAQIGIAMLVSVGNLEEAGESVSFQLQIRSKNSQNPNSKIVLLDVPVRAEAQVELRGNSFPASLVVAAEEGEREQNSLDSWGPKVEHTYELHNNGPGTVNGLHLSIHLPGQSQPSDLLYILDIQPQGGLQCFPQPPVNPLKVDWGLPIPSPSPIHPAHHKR
# Sequence (P08514 891-1039 limits assumed): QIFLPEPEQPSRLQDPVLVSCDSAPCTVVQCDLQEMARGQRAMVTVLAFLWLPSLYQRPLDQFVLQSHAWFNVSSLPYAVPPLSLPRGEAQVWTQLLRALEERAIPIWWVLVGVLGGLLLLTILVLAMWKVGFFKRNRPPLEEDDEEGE
# testDetails: Antagonist activity at GP2b/GP3a receptor in human platelet rich plasma assessed as inhibition of ADP-induced platelet aggregation preincubated for 1 min followed by ADP addition by aggregometric method
assayEndpoint: pIC50
The read-out pIC50 is expressed as -log10 of concentration in moles per litre.

• O=C(O)C(Cc1ccc2cc(OCCCCN3CCNCC3)ccc2c1)NS(=O)(=O)c1ccc(Br)cc1 (centres undefined) = 4.73

Name the recorded pIC50 of the item CCCCS(=O)(=O)NC(Cc1ccc2cc(OCc3ccc(C(=N)N)cc3)ccc2c1)C(=O)O (centres undefined) in your answer.
5.48

Please look at this compound and report its pIC50: COc1ccc(S(=O)(=O)NC(Cc2ccc3cc(OCCCN4CCNCC4)ccc3c2)C(=O)O)cc1 (centres undefined)
5.78

Retrieve pIC50 measured for O=C(NC(Cc1ccc2cc(OCCCN3CCNCC3)ccc2c1)C(=O)O)c1ccc(F)cc1 (centres undefined) and print it.
5.12

Output measured pIC50 for this item: COc1ccc(C(=O)NC(Cc2ccc3cc(OCCCN4CCNCC4)ccc3c2)C(=O)O)cc1 (centres undefined)
4.90

* * *

Below, each of the compounds is paired with its reported pIC50 value.
# targetUnderTest: Integrin alpha-IIb/beta-3 (Homo sapiens, UniProt P08514+P05106)
# testDetails: Antagonist activity at GP2b/GP3a receptor in human platelet rich plasma assessed as inhibition of collagen-induced platelet aggregation preincubated for 1 min […] by aggregometric method
Field pIC50 (float): negative decimal logarithm of the concentration in molar.

* O=C(O)C(Cc1ccc2cc(OCCCN3CCNCC3)ccc2c1)NS(=O)(=O)c1ccccc1 (configuration not stated) | 5.88

Next item in the queue.
Give the reported pIC50 for this compound. N=C(N)c1ccc(COc2ccc3cc(CC(NS(=O)(=O)c4ccccc4)C(=O)O)ccc3c2)cc1 (configuration not stated)
4.56

* * *

# targetUnderTest: Integrin alpha-IIb/beta-3 (Homo sapiens, UniProt P08514+P05106)
# testDetails: Antagonist activity at GP2b/GP3a receptor in human platelet rich plasma assessed as inhibition of ADP-induced platelet aggregation preincubated for 1 min followed by ADP addition by aggregometric method
Rule: measured IC50 below 2 µM gets true (1); anything equal to or greater than 2 µM gets false (0).

Completed entries (count: 6):
- O=C(O)C(Cc1ccc2cc(OCCC3CCNCC3)ccc2c1)NS(=O)(=O)c1ccc(Br)cc1 (centres undefined): false (0)
- O=C(NC(Cc1ccc2cc(OCCCN3CCNCC3)ccc2c1)C(=O)O)c1ccccc1 (centres undefined): false (0)
- N=C(N)c1ccc(COc2ccc3cc(CC(NC(=O)c4ccc([N+](=O)[O-])cc4)C(=O)O)ccc3c2)cc1 (centres undefined): false (0)
- O=C(O)C(Cc1ccc2cc(OCCN3CCNCC3)ccc2c1)NS(=O)(=O)c1ccc(Br)cc1 (centres undefined): false (0)
- O=C(O)C(Cc1ccc2cc(OCCCN3CCNCC3)ccc2c1)NS(=O)(=O)c1ccccc1 (centres undefined): true (1)
- O=C(NC(Cc1ccc2cc(OCCCN3CCNCC3)ccc2c1)C(=O)O)c1ccc([N+](=O)[O-])cc1 (centres undefined): false (0)

IC50 under 2 µM? Item: O=C(O)C(Cc1ccc2cc(OCCCN3CCNCC3)ccc2c1)NS(=O)(=O)c1ccc([N+](=O)[O-])cc1 (centres undefined)
true (1)

Record O=C(NC(Cc1ccc2cc(OCCCN3CCNCC3)ccc2c1)C(=O)O)c1cc(Cl)cc(Cl)c1 (centres undefined) : is its IC50 strictly below 2 µM?
false (0)

Given the entry N=C(N)c1ccc(COc2ccc3cc(CC(NS(=O)(=O)c4ccccc4)C(=O)O)ccc3c2)cc1 (centres undefined) , would its reported IC50 be below 2 µM?
true (1)
